This collection of values is drawn from patent US11510859B2.

# Saturation concentration in 10% propylene glycol or DMSO without escin or dexpanthenol per record follows
Experiment: Saturation concentrations of drugs in buffered solvent, HPLC of supernatant (Example 4)
Type: physicochemical
Details: McIlvaine buffer pH 6.0; compound pre-dissolved in propylene glycol
Description: 250 μl “McIlvaine 0.1%” were mixed with 50 μl dexpanthenol stock solution, brought to 900 μl with distilled water, and combined and vigorously mixed with 100 μl experimental compound pre-dissolved resp. pre-suspended in propylene glycol. Alternative solutions with compound pre-dilutions/pre-suspensions in DMSO were prepared. Samples were centrifuged for 10 min at 15800 rcf. […]
Measure name: Saturation concentration in 10% propylene glycol or DMSO without escin or dexpanthenol

Molecule	Recorded result
CC(=O)O[C@H]1C(=O)[C@@]2(C)[C@H]([C@H](OC(=O)c3ccccc3)[C@]3(O)C[C@H](OC(=O)[C@H](O)[C@@H](NC(=O)c4ccccc4)c4ccccc4)C(C)=C1C3(C)C)[C@]1(OC(C)=O)CO[C@@H]1C[C@@H]2O	2.71 µg/mL
CC[C@@H]1/C=C(\C)C[C@H](C)C[C@H](OC)[C@H]2O[C@@](O)(C(=O)C(=O)N3CCCC[C@H]3C(=O)O[C@H](/C(C)=C/[C@@H]3CC[C@H](Cl)[C@H](OC)C3)[C@H](C)[C@@H](O)CC1=O)[C@H](C)C[C@@H]2OC	<0.1 µg/mL
CCC(=O)O[C@]1(C(=O)SCF)[C@H](C)C[C@H]2[C@@H]3C[C@H](F)C4=CC(=O)C=C[C@]4(C)[C@@]3(F)[C@@H](O)C[C@@]21C [Fluticasone propionate]	0.68 µg/mL
COc1cc(/C=C/C(=O)CC(=O)/C=C/c2ccc(O)c(OC)c2)ccc1O	<0.2 µg/mL
C=CC[C@@H]1/C=C(\C)C[C@H](C)C[C@H](OC)[C@H]2O[C@@](O)(C(=O)C(=O)N3CCCC[C@H]3C(=O)O[C@H](/C(C)=C/[C@@H]3CC[C@@H](O)[C@H](OC)C3)[C@H](C)[C@@H](O)CC1=O)[C@H](C)C[C@@H]2OC.O	132 µg/mL
